B1: library; numbered along this chain (parent)
chain: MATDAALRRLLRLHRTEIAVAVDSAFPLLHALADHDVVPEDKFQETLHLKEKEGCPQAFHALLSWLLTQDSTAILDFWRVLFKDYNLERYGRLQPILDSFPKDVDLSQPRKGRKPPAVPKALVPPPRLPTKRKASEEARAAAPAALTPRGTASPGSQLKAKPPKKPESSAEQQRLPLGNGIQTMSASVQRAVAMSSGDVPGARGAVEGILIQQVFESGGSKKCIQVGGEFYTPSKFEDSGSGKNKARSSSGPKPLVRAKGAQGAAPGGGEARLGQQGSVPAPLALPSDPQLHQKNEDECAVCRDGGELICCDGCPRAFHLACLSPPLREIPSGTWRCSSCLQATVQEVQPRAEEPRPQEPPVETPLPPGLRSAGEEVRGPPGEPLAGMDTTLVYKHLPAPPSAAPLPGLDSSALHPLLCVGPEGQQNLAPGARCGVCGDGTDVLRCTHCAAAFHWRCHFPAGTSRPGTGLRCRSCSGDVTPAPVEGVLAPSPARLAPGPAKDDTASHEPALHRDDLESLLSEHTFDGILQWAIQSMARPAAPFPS

Variants of: B1
ASSAY_SUMMARY: AIRE transcriptional activation functional score (insulin promoter-GFP; nonsense median 0, synonymous median 1) (normalised score); higher = higher AIRE activity (more reporter activation)
TEST_SETTINGS: with insulin promoter-GFP reporter in HEK293
RESULT_TYPE: AIRE transcriptional activation functional score

Consider the reported AIRE transcriptional activation functional score for these variants:
MUTATION_DESCRIPTOR | TEST_RESULT
C457E | 0.0401
T334Y | 1.17
E136N | 0.529
D478C | 0.947
L158D | 0.772

Q: Given V345R , state its recorded AIRE transcriptional activation functional score.
Result: 1.14

Q: Given P509F , state its recorded AIRE transcriptional activation functional score.
Result: 1.17

Q: Given W455C , state its recorded AIRE transcriptional activation functional score.
Result: 1.09

Q: Given S521T , state its recorded AIRE transcriptional activation functional score.
Result: 1.08

Q: Given S411V , state its recorded AIRE transcriptional activation functional score.
Result: 1.06

Q: Given Q157D , state its recorded AIRE transcriptional activation functional score.
Result: 0.498

The reported measurements were obtained from the supplement of paper PMC12667976.
